The reported numbers originate from patent US6664285B1.

Tested on: LXFS650 (lung small-cell)
Test: Colony-forming assay
Format: cell-based, human
Settings: Homo sapiens, read-out: IC50 colony formation
property name: IC50 (µM)
Hi! Could you send only the number? It should be in µM, unit omitted.

molecule c1ccc(-c2c(-c3[nH]c4ccccc4c3-c3ccccc3)[nH]c3ccccc23)cc1 , IC50 observed: 4.7

----------
System: LXFA289 (lung adenocarcinoma)
Experiment: Colony-forming assay
Assay type: cell-based, human
Settings: Homo sapiens, read-out: IC50 colony formation
property name: IC50
Please answer using a numeric value trailed by its unit.

The value of IC50 measured for the compound O=C1/C(=C2\Nc3ccccc3C2=O)Nc2ccccc21 turned out to be 3.5 µM

----------
// IC50 lookup, one value per entry
Test system: PAXF546 (pancreatic)
Assay: Colony-forming assay
Format: cell-based, human
Details: read-out: IC50 colony formation
Just the number please, in µM, no unit attached.

>>> result_number("O=C1Nc2ccc(I)cc2/C1=C1/Nc2ccccc2C1=O")
18

Continue with the next compound.
IC50 reported for this compound O=C1Nc2ccc(Cl)cc2/C1=C1/Nc2ccccc2C1=O : 4.6

----------
System: various tumor cell lines (all)
Assay: Colony-forming assay, all tumor xenografts
Assay type: cell-based, human
Details: tumor xenograft type (all); read-out: IC50 colony formation
pIC50: −log10 of the molar value.
property name: pIC50

Lookup result for O=C1Nc2ccc(S(=O)(=O)O)cc2C1=C1Nc2ccccc2C1=O [Comparative Example 1, Indirubin-5-sulfonic acid, reference compound] ; measured pIC50: < 4.52

----------
Test system: OVXF1353 (ovarian)
Assay: Colony-forming assay
Type: cell-based, human
Settings: read-out: IC50 colony formation
property name: pIC50
Note on units: pIC50 is unitless, being -log10 of a concentration expressed in mol/L.

Measured pIC50, O=C1Nc2ccccc2/C1=C1/Nc2ccccc2C1=O : 4.91

----------
Test system: BXF1301 (bladder)
Assay: Colony-forming assay
Assay type: cell-based, human
Conditions: read-out: IC50 colony formation
property name: IC50
Give me the value, and tack the unit on after it.

>>> result("O=C1Nc2ccccc2/C1=C1/Nc2ccccc2/C1=N\\O")
"10.6 µM"

// recorded IC50 for O=C1Nc2ccc(I)cc2/C1=C1/Nc2ccccc2/C1=N\O : 4 µM

----------
# IC70 colony formation annotations
Tested on: MCF7X (mammary)
Test: Colony-forming assay
Format: cell-based, human
Value expressed in nM; do not type the unit.

The measured IC70 colony formation associated with O=C1Nc2ccc(I)cc2/C1=C1/Nc2ccccc2C1=O reads 2500

Lab note: O=C1Nc2ccccc2/C1=C1/Nc2ccccc2C1=O gave IC70 colony formation of 6000

Noted for O=C1Nc2ccc(S(=O)(=O)NCCO)cc2C1=C1Nc2ccccc2C1=O [Example 13, Indirubin-5-sulfone(2-hydroxyethyl)amide] : its IC70 colony formation reads 2100

compound Cc1ccc2c(c1)/C(=C1/Nc3ccccc3C1=O)C(=O)N2 , IC70 colony formation observed: 1200

Quick note, IC70 colony formation for O=C1Nc2ccc([N+](=O)[O-])cc2C1=C1Nc2ccccc2C1=O landed at 15100

Memo: O=C1Nc2ccc(I)cc2/C1=C1/Nc2ccccc2/C1=N\O , reported IC70 colony formation: 10400

----------
System: LXFA289 (lung adenocarcinoma)
Experiment: Colony-forming assay
Assay type: cell-based, human
Below, each entry is listed alongside its reported IC70 colony formation.
Write it as a number; the unit µM goes unstated.

Please review the following examples before continuing.
>>> result_number("O=C1/C(=C2\\Nc3ccccc3C2=O)Nc2ccccc21")
12.3
>>> result_number("O=C1Nc2ccc(S(=O)(=O)NCCO)cc2C1=C1Nc2ccccc2C1=O [Example 13, Indirubin-5-sulfone(2-hydroxyethyl)amide]")
2.6
>>> result_number("O=C1Nc2ccccc2/C1=C1/Nc2ccccc2/C1=N\\O")
3.4

O=C1Nc2ccc(I)cc2/C1=C1/Nc2ccccc2/C1=N\O has a reported IC70 colony formation of 0.7

----------
System: 1220 (renal)
Experiment: Colony-forming assay
Assay type: cell-based, human
Conditions: renal 1220; read-out: IC50 colony formation
property name: pIC50
Note: pIC50 values are expressed as the negative base-10 logarithm of concentration in M.

Reported pIC50 of O=C1Nc2ccc(Cl)cc2/C1=C1/Nc2ccccc2C1=O [Example 4, 5-Chloroindirubin] : 4.95

----------
System: LXFA289 (lung adenocarcinoma)
Test: Colony-forming assay
Format: cell-based, human
Conditions: read-out: IC50 colony formation
# reported IC50; entries follow
Write down the numeric answer in µM and omit the unit.

>>> result_number("O=C1Nc2ccccc2/C1=C1/Nc2ccccc2/C1=N\\O")
0.9
>>> result_number("O=C1Nc2ccc(I)cc2/C1=C1/Nc2ccccc2/C1=N\\O")
0.05

// next item, IC50 requested
Data point: O=C1Nc2ccc(S(=O)(=O)NCCO)cc2C1=C1Nc2ccccc2C1=O [Example 13, Indirubin-5-sulfone(2-hydroxyethyl)amide] ; IC50 = 1.1

----------
Test system: HT29X (colon)
Assay: Colony-forming assay
Format: cell-based, human
Details: Homo sapiens; colon HT29X; read-out: IC50 colony formation
property name: pIC50
# pIC50 is unitless: minus log10 of the molar concentration; print number only

>>> result_number("O=C1/C(=C2\\Nc3ccccc3C2=O)Nc2ccccc21")
5.48

response.value for c1ccc(-c2c(-c3[nH]c4ccccc4c3-c3ccccc3)[nH]c3ccccc23)cc1 (field: pIC50) = 5.80

----------
Below, each of the compounds is paired with its reported IC50 value.
Test system: MEXF515LX (melanoma)
Experiment: Colony-forming assay
Type: cell-based, human
Settings: read-out: IC50 colony formation
Give just the number in µM; leave the unit off.

>>> result_number("O=C1Nc2ccc(I)cc2/C1=C1/Nc2ccccc2/C1=N\\O")
2.6

Switching to the query record.
Lookup result for O=C1Nc2ccccc2/C1=C1/Nc2ccccc2/C1=N\O ; measured IC50: 2.8

----------
Test system: MEXF514 (melanoma)
Assay: Colony-forming assay
Format: cell-based, human
property name: IC70 colony formation (µM)
API: value field is a number in µM; no unit string.

With MEXF514 (melanoma) as the test system, O=C1Nc2ccc(Cl)cc2/C1=C1/Nc2ccccc2C1=O showed IC70 colony formation of 26.0

Short answer on MEXF514 (melanoma) for Cc1ccc2c(c1)/C(=C1/Nc3ccccc3C1=O)C(=O)N2 , IC70 colony formation: 27.8

Observed IC70 colony formation on MEXF514 (melanoma), entry O=C1Nc2ccc(Br)cc2/C1=C1/Nc2ccccc2C1=O , equals 8.0

----------
Documented pIC50 across a set of compounds
Test system: CXF280 (colon)
Experiment: Colony-forming assay
Type: cell-based, human
Conditions: Homo sapiens, read-out: IC50 colony formation
pIC50: −log10 of the molar value.

>>> result("c1ccc(-c2c(-c3[nH]c4ccccc4c3-c3ccccc3)[nH]c3ccccc23)cc1")
"> 6.00"

Moving on to the next compound.
Param item: O=C1Nc2ccccc2/C1=C1\C(=O)Nc2ccccc21 ; param system: CXF280 (colon); output pIC50: > 6.00

----------
System: MX1 (mammary)
Test: Colony-forming assay
Assay type: cell-based, human
Details: Homo sapiens, read-out: IC50 colony formation
property name: pIC50
Note on units: pIC50 is unitless, being -log10 of a concentration expressed in mol/L.

Lab note: c1ccc(-c2c(-c3[nH]c4ccccc4c3-c3ccccc3)[nH]c3ccccc23)cc1 gave pIC50 of 5.55

----------
Tested on: MCF7X (mammary)
Experiment: Colony-forming assay
Format: cell-based, human
Conditions: Homo sapiens, read-out: IC50 colony formation
property name: IC50

Per the records, this compound ( O=C1Nc2ccccc2/C1=C1\C(=O)Nc2ccccc21 ) has IC50 equal to < 1000 nM
